# Tested on: OVCAR-4 ovarian
# testDetails: NCI tumour cell line growth inhibition, 48 h; in the data active means GI50 below about 0.43 µM; inactive means the rest
Your reply should match one of these outcome classes. 1 (yes) for active, 0 (no) for inactive

These solved cases illustrate the format of a correct answer.
| molecule | targetDesc | assignedLabel |
| --- | --- | --- |
| COc1ccc(-c2nnc3n(C)c(=O)c4ccccc4n23)cc1N | OVCAR-4 ovarian | 0 (no) |
| CN(C)CC[C@H](CSc1ccccc1)Nc1ccc(S(=O)(=O)NC(=O)c2ccc(N3CCN(Cc4ccccc4-c4ccc(Cl)cc4)CC3)cc2)cc1[N+](=O)[O-] | OVCAR-4 ovarian | 0 (no) |
| CC(C)(/C=C(\C#N)C(=O)N1CCC[C@@H](n2nc(-c3ccc(Oc4ccccc4)cc3F)c3c(N)ncnc32)C1)N1CCN(C2COC2)CC1 | OVCAR-4 ovarian | 0 (no) |
| COC(=O)[C@]12CC[C@@H](C)[C@H](C)[C@@H]1C1=CC[C@@H]3[C@@]4(C)C[C@@H](O)[C@H](O)[C@@](C)(CO)C4=CC[C@@]3(C)[C@]1(C)CC2 | OVCAR-4 ovarian | 0 (no) |
| O=c1oc2ccc(-c3ccc(F)cc3F)cc2c(=O)n1-c1cccc(C(F)(F)F)c1 | OVCAR-4 ovarian | 0 (no) |
| CCOC(=O)Nc1cc2c(c(N)n1)N=C(c1ccccc1)CO2 | OVCAR-4 ovarian | 0 (no) |
| N=c1c2c(-c3ccccc3)c(-c3ccccc3)n(Cc3ccccc3)c2ncn1C1CCC(O)CC1 (configuration not stated) | OVCAR-4 ovarian | 0 (no) |
| COc1cc(C(=O)N2CCN(C(=O)c3cc(OC)c(OC)c(OC)c3)C2=S)cc(OC)c1OC | OVCAR-4 ovarian | 0 (no) |
| O=C(c1ccco1)c1c(C(F)(F)F)nc2ccc(Cl)cc2[n+]1[O-] | OVCAR-4 ovarian | 0 (no) |
| CCOC(=O)N[C@H]1CCc2cc(OC)c(OC)c(OC)c2-c2ccc(SC)c(=O)cc21 | OVCAR-4 ovarian | 1 (yes) |

(Q) Record request — test call for CC1(C)OC2C(CO[Si](C)(C)C(C)(C)C)OC(n3c(I)c(C#C[Si](C)(C)C)c(=O)[nH]c3=O)C2O1 (configuration not stated)
(A) 0 (no)

(Q) Record request — test call for `COC(=O)c1c2c(c(C)[n+]([O-])c1C)C(=O)C=C(NCc1ccc(F)cc1)C2=O`
(A) 1 (yes)

---

TGI: recorded values
# System: UO-31 renal
# testDetails: NCI tumour cell line growth inhibition, 48 h

(Q) Given COC(C)(C)C1(O)CC[C@@H](C)CC1=O (stereo partly specified) , respond with its TGI.
(A) > 100 µM

(Q) Given CC(NCCC(c1ccccc1)c1ccccc1)c1ccccc1 (stereo unspecified) , respond with its TGI.
(A) 12.1 µM

(Q) Given Cc1nn(-c2ccccc2)c2c1C(c1cc3ccccc3nc1Cl)NC(=O)N2 (stereo unspecified) , respond with its TGI.
(A) 28.2 µM

---

# Test system: HCT-116 colon
# testDetails: NCI tumour cell line growth inhibition, 48 h
TGI: recorded values

Some solved entries appear below for comparison.
| molecule | propertyLabel | resultValue |
| --- | --- | --- |
| C=C1CC(C#N)(C#N)[C@H]2C3CCCC3C[C@@H]12 (stereo partly drawn) (tested in a mixture with another compound) | TGI | 19.4 µM |
| O=P(O)(O)C(N=C(Nc1ccccc1)Nc1ccccc1)P(=O)(O)O | TGI | > 100 µM |

(Q) Given Cc1c2n(c(=O)[nH]c1=O)C1OC(CO)C(N=[N+]=[N-])C1O2 (stereo not drawn) , respond with its TGI.
(A) > 100 µM

Where do the numbers come from? From PubChem BioAssay (NCI).
